Tested on: UO-31 renal
# valid calls are 1 = active, -1 = inactive; nothing else

Recorded results for 2 molecules are shown here.
| molecule | class |
| --- | --- |
| O=C1Nc2ccccc2/C1=C/C(=O)c1ccc(N2CCCC2)cc1 | -1 |
| COc1ccc2c(NCCCCCCCCNc3c4ccccc4nc4cc(OC)ccc34)c3ccccc3nc2c1 | 1 |

Field: outcome | Entry: `COc1ccc(C(=O)/C=C/c2c(OC)cc(OC)cc2OC)c(OC)c1` -1

Could you please tell me the result logged for Nc1ccn(C2OC(CO)C(O)C2(F)F)c(=O)n1 (stereo unspecified) in this assay? 1

---

Items are presented alongside their recorded TGI.
System: UO-31 renal
Assay: NCI tumour cell line growth inhibition, 48 h

These recorded examples may help you get a feel for the data.
| compound | target-entity | TGI |
| --- | --- | --- |
| O=C1/C(=C/c2ccc(O)c(CN3CCCCC3)c2)CCC/C1=C\c1ccc(O)c(CN2CCCCC2)c1 | UO-31 renal | 22.5 µM |
| Cc1nc(N)nc(N)c1CCCCc1ccccc1 | UO-31 renal | > 100 µM |
| OCCCc1n(Cc2ccc3ccccc3c2)c2ccccc2[n+]1Cc1ccc2ccccc2c1 | UO-31 renal | 25.3 µM |
| COc1ccc([As]=[As]c2ccc(OC)c(NCS(=O)(=O)O)c2)cc1NCS(=O)(=O)O (centres undefined) | UO-31 renal | 3.16 µM |
| Cc1ccc(/C=C2\COc3ccc(O)c(O)c3C2=O)cc1 | UO-31 renal | 1.8 µM |
| O=C1CSC(c2cccc([N+](=O)[O-])c2)N1c1ccc(-c2ccc(-n3c(-c4ccccc4)nc4ccccc4c3=O)cc2)cc1 (centres undefined) | UO-31 renal | > 100 µM |
| CC12OC(CC(O)C1O)n1c3ccccc3c3c4c(c5c6ccccc6n2c5c31)C(=O)N(CCN1CCCC1)C4=O (centres undefined) | UO-31 renal | 9.95 µM |
| CS(=O)(=O)Nc1ccc(Nc2c3ccccc3nc3cc([N+](=O)[O-])ccc23)cc1 | UO-31 renal | 13.6 µM |

Lab request: please report TGI under test system UO-31 renal for COc1ccc(N=NC(=O)NC(CC(C)C)C(=O)NC(Cc2ccccc2)C(=O)O)cc1 (centres undefined) > 100 µM

---

Tested on: HS 578T breast
Assay: NCI tumour cell line growth inhibition, 48 h
parameter-measured: GI50

Answered examples (5):
| compound | GI50 |
| --- | --- |
| c1ccc2nc3c(cc2c1)Sc1cc2ccccc2[n+]2c1N3CC2 | 18.3 µM |
| Cc1ccc(C(=Nc2ccccc2)N=P(c2ccccc2)(c2ccccc2)c2ccccc2)cc1 | 1.48 µM |
| Nc1ccn(C2OC(CO)C(O)C2(F)F)c(=O)n1 (stereo unspecified) | > 100 µM |
| CCN(CC)c1ccc(C2=NN(C(C)=O)C(c3cc(OC)c(OC)c(OC)c3)C2)cc1 (stereo unspecified) | 0.348 µM |
| CCN(Cc1cccnc1)c1ccc(CO)c(Cl)c1 | > 100 µM |

Given `O=C(Cc1csc2nc(-c3ccc(Br)cc3)cn12)N/N=C/c1ccccc1` , state its recorded GI50. 16.4 µM

# get_value(readout='GI50', item= `O=C1c2ccccc2C(=O)c2c(Nc3ccc(CCO)cc3)ccc(O)c21` ) 3.52 µM

Item under review: `C/C(=N\NC(=O)c1ccc(C(C)(C)C)cc1)c1ccc(O)cc1O` . Reported GI50? 3.26 µM
